experiment: Clearance in dog; type: ADME, Canis lupus familiaris; conditions: in vivo
Measured parameter: clearance
Please answer in the form of a number followed by its unit of measurement.

The value of clearance measured for the molecule O=C(CO)N1CCC(c2[nH]nc(-c3ccc(Cl)cc3)c2-c2ccncn2)CC1 turned out to be 2.92 mL/min/kg

----------
assay: AUC (0 to t) in Sprague-Dawley rat at 30 mg/kg, po by LC-MS analysis; type: ADME, organism-based; conditions: in vivo
Measured parameter: AUCt (µM·h)
Report only the number, with the unit µM·h understood.

The value of AUCt measured for the compound CC(=O)Nc1cc(-c2c(-c3ccc(F)cc3)nc([S+](C)[O-])n2C)ccn1 (stereo unspecified) turned out to be 0.42

----------
assay: Cmax in Sprague-Dawley rat at 20 mg/kg, po measured for 24 hrs by LC-MS/MS analysis; assay type: ADME, organism-based; conditions: in vivo
Measured parameter: Cmax (nM)
Report only the number, with the unit nM understood.

The value of Cmax measured for the compound CC(=O)Nc1cc(-c2c(-c3ccc(F)cc3)nc([S+](C)[O-])n2C)ccn1 (stereo unspecified) turned out to be 314

----------
Cmax values by entry
experiment: Cmax in Wistar rat at 10 mg/kg, po by LC-MS/MS analysis; assay type: ADME, organism-based; settings: in vivo
Report only the number, with the unit ng/mL understood.

# Item smiles, Reported measurement
rows = [
    ("Cn1c(=O)c(Oc2ccc(F)cc2F)cc2cnc(NC(CCO)CCO)nc21", 1340),
]

Let's switch to this compound now.
The value of Cmax measured for the compound Cn1c(=O)c(Oc2ccc(F)cc2F)cc2cnc(NC3CCOCC3)nc21 turned out to be 650

----------
Tmax values by entry
assay: Tmax in Wistar rat at 10 mg/kg, po by LC-MS/MS analysis; format: ADME, organism-based; conditions: in vivo
Report only the number, with the unit h understood.

# Item smiles, Reported measurement
rows = [
    ("Cn1c(=O)c(Oc2ccc(F)cc2F)cc2cnc(NC3CCOCC3)nc21", 2),
]

Let's switch to this compound now.
The value of Tmax measured for the compound Cn1c(=O)c(Oc2ccc(F)cc2F)cc2cnc(NC(CCO)CCO)nc21 turned out to be 0.5

----------
experiment: Oral bioavailability in ICR mouse; format: ADME, organism-based; conditions: in vivo
Measured parameter: bioavailability (%)
Report only the number, with the unit % understood.

The value of bioavailability measured for the molecule CCCNC(=O)c1cn2ncnc(Nc3cc(C(=O)NC4CC4)ccc3C)c2c1C [BMS-582949] turned out to be 90

----------
test: Plasma protein binding in cynomolgus monkey assessed as unbound fraction at 10 uM incubated for 6 hrs by LC-MS/MS analysis; type: ADME, cell-free, Macaca fascicularis
Measured parameter: fraction unbound at 6 h, 10 µM
Keep it simple and answer with nothing but the number.

The value of fraction unbound at 6 h, 10 µM measured for the molecule CC(=O)Nc1cc(-c2c(-c3ccc(F)cc3)nc([S+](C)[O-])n2C)ccn1 (stereo unspecified) turned out to be 0.611

----------
experiment: Volume of distribution at steady state in Wistar rat at 3 mg/kg, iv; assay type: ADME, organism-based; details: in vivo, read-out: Vdss
Measured parameter: Vd (L/kg)
Report only the number, with the unit L/kg understood.

The value of Vd measured for the molecule CCCNC(=O)c1cn2ncnc(Nc3cc(C(=O)NC4CC4)ccc3C)c2c1C [BMS-582949] turned out to be 1.1

----------
biological target: Mitogen-activated protein kinase 3 (Homo sapiens); assay: Inhibition of ERK1 (unknown origin)
Sequence (P27361 whole entry): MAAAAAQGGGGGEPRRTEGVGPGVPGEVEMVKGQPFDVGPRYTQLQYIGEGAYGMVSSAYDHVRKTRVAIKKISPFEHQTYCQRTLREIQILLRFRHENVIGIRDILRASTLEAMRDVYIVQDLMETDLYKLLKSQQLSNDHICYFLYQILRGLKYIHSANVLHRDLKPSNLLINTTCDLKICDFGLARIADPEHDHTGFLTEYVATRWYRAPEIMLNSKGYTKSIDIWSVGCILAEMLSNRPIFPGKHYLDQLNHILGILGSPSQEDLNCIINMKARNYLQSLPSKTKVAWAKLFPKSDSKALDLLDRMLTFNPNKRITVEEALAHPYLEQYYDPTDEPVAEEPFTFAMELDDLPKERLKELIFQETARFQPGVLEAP
pIC50: −log10 of the molar value.
Measured parameter: pIC50

The value of pIC50 measured for the compound CCc1nc(-c2cccc(C)c2)c(-c2ccnc(NC(=O)c3ccccc3)c2)s1 turned out to be < 5.00

----------
assay: AUC (0 to t) in Sprague-Dawley rat at 50 mg/kg, po by LC-MS analysis; type: ADME, organism-based; conditions: in vivo
Measured parameter: AUCt

The value of AUCt measured for the compound CC(=O)Nc1cc(-c2c(-c3ccc(F)cc3)nc([S+](C)[O-])n2C)ccn1 (stereo unspecified) turned out to be 3.4 µM·h

----------
experiment: Oral bioavailability in Sprague-Dawley rat at 10 mg/kg by LC-MS analysis; type: ADME, organism-based; settings: in vivo
bioavailability values by entry
Report only the number, with the unit % understood.

# Item smiles, bioavailability [%]
measured = [
    ("Cn1c(=O)c(Oc2ccc(F)cc2F)cc2cnc(NC3CCOCC3)nc21", 29.3),
]

Let's switch to this compound now.
The value of bioavailability measured for the compound Cn1c(=O)c(Oc2ccc(F)cc2F)cc2cnc(NC(CCO)CCO)nc21 turned out to be 80.1

----------
assay: Tmax in ICR mouse at 5 mg/kg, iv; assay type: ADME, organism-based; details: in vivo
Measured parameter: Tmax (h)
Report only the number, with the unit h understood.

The value of Tmax measured for the compound CCCNC(=O)c1cn2ncnc(Nc3cc(C(=O)NC4CC4)ccc3C)c2c1C turned out to be 1

----------
biological target: Protein kinase C alpha type (Homo sapiens, UniProt P17252)
Measured parameter: IC50

Entry C[S+]([O-])c1ccc(-c2nc(-c3ccncc3)c(-c3ccc(F)cc3)[nH]2)cc1 (stereo unspecified) [SB-203580] ; assay system Protein kinase C alpha type (Homo sapiens, UniProt P17252); IC50 recorded at > 100 µM

----------
assay: AUC (0 to infinity) in Sprague-Dawley rat at 10 mg/kg, po by LC-MS/MS analysis; assay type: ADME, organism-based; settings: in vivo
Measured parameter: AUC (µM·h)
Report only the number, with the unit µM·h understood.

The value of AUC measured for the molecule CC(=O)Nc1cc(-c2c(-c3ccc(F)cc3)nc([S+](C)[O-])n2C)ccn1 (stereo unspecified) turned out to be 1.04

----------
experiment: Half life in Sprague-Dawley rat at 20 mg/kg, po by LC-MS/MS analysis; format: ADME, organism-based; settings: in vivo
Measured parameter: half-life (h)
Report only the number, with the unit h understood.

The value of half-life measured for the compound CC(=O)Nc1cc(-c2c(-c3ccc(F)cc3)nc([S+](C)[O-])n2C)ccn1 (stereo unspecified) turned out to be 3.3

----------
test: Clearance in Wistar rat at 3 mg/kg, iv; assay type: ADME, organism-based; details: in vivo
Measured parameter: clearance (mL/min/kg)
Report only the number, with the unit mL/min/kg understood.

The value of clearance measured for the compound CCCNC(=O)c1cn2ncnc(Nc3cc(C(=O)NC4CC4)ccc3C)c2c1C turned out to be 5.4

----------
test: AUC (0 to infinity) in Sprague-Dawley rat at 20 mg/kg, po measured for 24 hrs by LC-MS/MS analysis; assay type: ADME, organism-based; conditions: in vivo
Measured parameter: AUC (µM·h)
Report only the number, with the unit µM·h understood.

The value of AUC measured for the compound CC(=O)Nc1cc(-c2c(-c3ccc(F)cc3)nc([S+](C)[O-])n2C)ccn1 (stereo unspecified) turned out to be 2.24

----------
experiment: Plasma protein binding in human assessed as unbound fraction at 30 uM incubated for 6 hrs by LC-MS/MS analysis; type: ADME, cell-free
Measured parameter: fraction unbound at 6 h, 30 µM
Keep it simple and answer with nothing but the number.

The value of fraction unbound at 6 h, 30 µM measured for the compound CC(=O)Nc1cc(-c2c(-c3ccc(F)cc3)nc([S+](C)[O-])n2C)ccn1 (stereo unspecified) turned out to be 0.781
